- Target Entity: hCRTH2 (Homo sapiens, UniProt Q9Y5Y4)
- Construct: expressed in transfected cells; host or cells: HEK (human embryonic kidney) cells expressing hCRTH2; membrane preparation
- Sequence (Q9Y5Y4 whole entry): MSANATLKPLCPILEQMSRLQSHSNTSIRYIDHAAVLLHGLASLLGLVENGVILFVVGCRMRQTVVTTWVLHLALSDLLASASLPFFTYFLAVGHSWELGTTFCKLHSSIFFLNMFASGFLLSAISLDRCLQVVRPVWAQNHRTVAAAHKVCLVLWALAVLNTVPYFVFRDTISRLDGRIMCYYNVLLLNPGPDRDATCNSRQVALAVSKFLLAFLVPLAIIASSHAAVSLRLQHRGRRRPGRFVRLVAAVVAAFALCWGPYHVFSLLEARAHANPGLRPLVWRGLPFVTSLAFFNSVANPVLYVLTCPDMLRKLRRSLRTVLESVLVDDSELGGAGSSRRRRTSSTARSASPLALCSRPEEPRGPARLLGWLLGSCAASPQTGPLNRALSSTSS
- Experiment Notes: Radioligand binding assay ([3H]PGD2 competition, HEK-hCRTH2 membranes)
- Assay Context: [3H]PGD2 competition, Table B
- Description: Biological Assays Radioligand Binding Assay. Radioligand binding assays were performed at room temperature in 50 mM Tris-HCl pH 7.4, 1 mM EDTA containing 2 mM MnCl2 and 3.0 nM [^3H]PGD2 (New England Nuclear, Boston, Mass.) (171 Ci mmol^−1), in a final volume of 0.2 mL. […] Total and non-specific binding were determined in the absence and the presence of 10 μM PGD2, respectively. […] The radioactivity was measured with Betaplate model 1205 (Wallac).
pKi: −log10 of the molar value.
Measure: pKi

Compound: O=C(O)CCCCc1nc2cc(C(=O)N[C@H]3CCS(=O)(=O)c4ccccc43)ccc2nc1-c1ccccc1
Result Value: 6.70 to 7.70

Give pKi for C[C@H](NC(=O)c1ccc2nc(-c3ccc(Cl)cc3)c(CCc3cc(F)cc(CC(=O)O)c3)nc2c1)c1ccc(F)cc1
7.70 to 8.68

Give pKi for CS(=O)(=O)N1CCC(NC(=O)c2ccc3nc(-c4ccccc4)c(CCCCC(=O)O)nc3c2)c2ccccc21 (centres unmarked)
8.70 to 10.00

Give pKi for O=C(O)CCCCc1nc2cc(C(=O)N3CCC(n4ncc5ccccc54)CC3)ccc2nc1-c1ccc(Cl)cc1
7.70 to 8.68

----------
Documented pKi across a set of molecules
- Target Entity: hCRTH2 (Homo sapiens, UniProt Q9Y5Y4)
- Construct: expressed in transfected cells; host or cells: HEK (human embryonic kidney) cells expressing hCRTH2; membrane preparation
- Experiment Notes: Radioligand binding assay ([3H]PGD2 competition, HEK-hCRTH2 membranes)
- Assay Context: [3H]PGD2 competition, Table B
pKi: −log10 of the molar value.

Examples with their reported pKi follow.
Molecule: O=C(O)CCCCc1nc2cc(C(=O)N3CCN(c4ccc(Cl)cn4)CC3)ccc2nc1-c1ccc(Cl)cc1 [compound 669]
Target Entity: hCRTH2 (Homo sapiens, UniProt Q9Y5Y4)
pKi: 7.70 to 8.68
//
Molecule: Cn1cc(N2CCN(C(=O)c3ccc4nc(-c5ccc(Cl)cc5)c(CCCCC(=O)O)nc4c3)CC2)cn1 [compound 671]
Target Entity: hCRTH2 (Homo sapiens, UniProt Q9Y5Y4)
pKi: 6.70 to 7.70
//
Molecule: O=C(O)CCCCc1nc2cc(C(=O)N3CCC(N4Cc5ccccc5C4=O)CC3)ccc2nc1-c1ccc(Cl)cc1 [compound 316]
Target Entity: hCRTH2 (Homo sapiens, UniProt Q9Y5Y4)
pKi: 7.70 to 8.68

Now look at this entry.
Give pKi for COc1ccc(N2CCN(C(=O)c3ccc4nc(-c5ccc(Cl)cc5)c(CCCCC(=O)O)nc4c3)CC2)cc1 [compound 622]
7.70 to 8.68

----------
- Target Entity: hCRTH2 (Homo sapiens, UniProt Q9Y5Y4)
- Construct: expressed in transfected cells; host or cells: HEK (human embryonic kidney) cells expressing hCRTH2; membrane preparation
- Experiment Notes: Radioligand binding assay ([3H]PGD2 competition, HEK-hCRTH2 membranes)
- Assay Context: [3H]PGD2 binding, rated A-E (Table A)
Measure: Ki

Examples with their reported Ki follow.
Compound: N#Cc1ccc(C2CN(C(=O)c3ccc4nc(-c5ccccc5)c(CCCCC(=O)O)nc4c3)C2)cc1
Result Value: 0.1 to 2 nM
//
Compound: CC(CCCc1nc2cc(C(=O)N3CCC(c4ccccc4)CC3)ccc2nc1-c1ccc(Cl)cc1)C(=O)O (stereo not shown)
Result Value: 0.1 to 2 nM
//
Compound: CC(=O)N1CC2(CCN(C(=O)c3ccc4nc(-c5ccccc5)c(CCCCC(=O)O)nc4c3)CC2)c2ccccc21
Result Value: 2.1 to 20 nM

Give Ki for Cc1cn(C2CCN(C(=O)c3ccc4nc(-c5ccccc5)c(CCCCC(=O)O)nc4c3)CC2)nn1 [15BQ]
2.1 to 20 nM
